Test system: Erythrocyte
Test: Anticomplement activity in rabbit erythrocytes assessed as concentration required for 50% hemolytic inhibition by alternative pathway pretreated for 10 mins with normal human serum followed by erythrocyte addition measured after 30 mins by spectrophotometeric method
Format: functional, cell-based
Details: Oryctolagus cuniculus
// classify: if (IC50 < 1000 µM) Y else N

# check: IC50 < 1000 µM for COC(=O)C1CC(=O)c2oc(=O)c3cc(O)c(O)c(O)c3c21 (stereo not drawn) [METHYLBREVIFOLIN CARBOXYLATE]
N

I'd appreciate it if you could check whether CC1(C)OC[C@H]([C@@H]2OC(=O)[C@]3(O)[C@@H]2OC(=O)C[C@H]3c2ccc(O)cc2)O1 has IC50 smaller than 1000 µM.
N

Is IC50 strictly under 1000 µM for the entry O=C(O)/C=C/c1ccc(O)c(O)c1 ?
Y

Confirm or reject: IC50 of COc1cc([C@@H](O)[C@@H]2C(=O)NCCc3ccc(cc3)Oc3ccc(cc3)CCNC(=O)/C=C/c3cc(OC)c(O)c2c3)ccc1O lies strictly below 1000 µM
Y

Consider the compound CCOC(=O)[C@H]1OC(=O)c2cc(O)c(O)c(O)c2[C@@H]1CC(=O)OC . Is its IC50 strictly less than 1000 µM?
N

Is it true that IC50 reported for COc1c(O)cc2c(=O)oc3c(O)c(O)cc4c(=O)oc1c2c34 is less than 1000 µM?
Y

For CCOC(=O)C1CC(=O)c2oc(=O)c3cc(O)c(O)c(O)c3c21 (stereo not drawn) [ETHYLBREVIFOLIN CARBOXYLATE] , is the recorded IC50 below the cut-off of 1000 µM?
N

Problem: For the compound COc1cc([C@@H]2OC(=O)[C@@H]3[C@H]2CO[C@H]3c2ccc(O)c(OC)c2)ccc1O , is IC50 under 1000 µM?
N

# check: IC50 < 1000 µM for O=c1oc2c(O)c(O)cc3c(=O)oc4c(O)c(O)cc1c4c23
Y

Dear reviewer, please state whether COC(=O)c1cc(O)c(O)c(O)c1 has IC50 strictly beneath 1000 µM.
N

IC50 under 1000 µM? Item: COc1cc(/C=C/C(=O)NCCc2ccc(O)cc2)ccc1O [N-TRANS-FERULOYL TYRAMINE]
N

For this compound, is IC50 lower than 1000 µM? Cc1ccc(C(=O)Nc2ccc(S(=O)(=O)O)c3cc(S(=O)(=O)O)cc(S(=O)(=O)O)c23)cc1NC(=O)c1cccc(NC(=O)Nc2cccc(C(=O)Nc3cc(C(=O)Nc4ccc(S(=O)(=O)O)c5cc(S(=O)(=O)O)cc(S(=O)(=O)O)c45)ccc3C)c2)c1
Y

Decide: IC50 of COc1cc(/C=C(/C(=O)NCCc2ccc(O)cc2)c2cc(OC)c(O)c(OC)c2)ccc1O strictly below 1000 µM?
N

Take the compound O=C1CCc2c1oc(=O)c1cc(O)c(O)c(O)c21 and say whether its IC50 is less than 1000 µM.
N

Please determine if CCOC(=O)[C@@H](CC(=O)OC)[C@H]1c2c(cc(O)c(O)c2O)C(=O)O[C@@H]1C(=O)OCC is below 1000 µM in terms of IC50.
N

For this compound, is IC50 lower than 1000 µM? COc1cc2c(=O)oc3c(O)c(OC)cc4c(=O)oc(c1O)c2c34
N

Given the entry COc1cc([C@H]2c3cc(O)c(OC)cc3/C(=C/C(=O)NCCc3ccc(O)cc3)[C@H]2C(=O)NCCc2ccc(O)cc2)ccc1O , would its reported IC50 be below 1000 µM?
Y

Item CCOC(=O)[C@H]1OC(=O)c2cc(O)c(O)c(O)c2[C@@H]1[C@H](CC(=O)O)C(=O)O : IC50 beneath 1000 µM, strictly?
Y

Report whether reported IC50 is lower than 1000 µM (strictly) for COc1c(O)cc2c(=O)oc3c(OC)c(O)cc4c(=O)oc1c2c34
N

Determine whether this compound shows IC50 lower than 1000 µM (ties excluded): CCOC(=O)[C@@H](CC(=O)O)[C@H]1c2c(cc(O)c(O)c2O)C(=O)O[C@@H]1C(=O)OCC
Y

---

Tested on: Erythrocyte
Assay: Anticomplement activity in sheep erythrocytes assessed as concentration required for 50% hemolytic inhibition by classic pathway pretreated for 10 mins with guinea pig serum followed by erythrocyte addition measured after 30 mins by spectrophotometeric method
Type: functional, cell-based
Conditions: Ovis aries
Kindly apply the following: 1 if IC50 is less than 900 µM, -1 in every other case.

Item COc1c(O)cc2c(=O)oc3c(OC)c(O)cc4c(=O)oc1c2c34 : IC50 beneath 900 µM, strictly?
1

A record lists CCOC(=O)[C@@H](CC(=O)OC)[C@H]1c2c(cc(O)c(O)c2O)C(=O)O[C@@H]1C(=O)OCC . Is its IC50 below 900 µM?
-1

Quick check: does COc1cc([C@H]2c3cc(O)c(OC)cc3/C(=C/C(=O)NCCc3ccc(O)cc3)[C@H]2C(=O)NCCc2ccc(O)cc2)ccc1O have IC50 under 900 µM?
1

hey, is IC50 for COc1cc([C@@H](O)[C@@H]2C(=O)NCCc3ccc(cc3)Oc3ccc(cc3)CCNC(=O)/C=C/c3cc(OC)c(O)c2c3)ccc1O lower than 900 µM or not?
1

Take the compound CCOC(=O)C1CC(=O)c2oc(=O)c3cc(O)c(O)c(O)c3c21 (centres undefined) [ETHYLBREVIFOLIN CARBOXYLATE] and say whether its IC50 is less than 900 µM.
-1

Does the reported IC50 of the following compound sit strictly below 900 µM? Cc1ccc(C(=O)Nc2ccc(S(=O)(=O)O)c3cc(S(=O)(=O)O)cc(S(=O)(=O)O)c23)cc1NC(=O)c1cccc(NC(=O)Nc2cccc(C(=O)Nc3cc(C(=O)Nc4ccc(S(=O)(=O)O)c5cc(S(=O)(=O)O)cc(S(=O)(=O)O)c45)ccc3C)c2)c1
1

Confirm or reject: IC50 of COc1cc2c(=O)oc3c(O)c(OC)cc4c(=O)oc(c1O)c2c34 lies strictly below 900 µM
-1

# strict comparison: is reported IC50 < 900 µM? input = O=C1CCc2c1oc(=O)c1cc(O)c(O)c(O)c21
-1

Consider the compound COc1cc(/C=C/C(=O)OCCc2ccc(O)cc2)ccc1O . Is its IC50 strictly less than 900 µM?
1

Determine if O=C(O)c1cc(O)c(O)c(O)c1 shows IC50 strictly lower than 900 µM.
1

Here's an entry: CCOC(=O)[C@@H](CC(=O)O)[C@H]1c2c(cc(O)c(O)c2O)C(=O)O[C@@H]1C(=O)OCC . Is its IC50 below 900 µM?
1

Please indicate whether the reported IC50 of COC(=O)c1cc(O)c(O)c(O)c1 is strictly below 900 µM.
1

Is IC50 strictly under 900 µM for the entry COc1c(O)cc2c(=O)oc3c(OC)c(O[C@@H]4OC[C@@H](O)[C@H](O)[C@H]4O)cc4c(=O)oc1c2c34 ?
1

Please indicate whether the reported IC50 of O=C(O)C[C@H](C(=O)O)[C@H]1c2c(cc(O)c(O)c2O)C(=O)O[C@@H]1C(=O)O is strictly below 900 µM.
1

Is IC50 of COc1c(O)cc2c(=O)oc3c(O)c(O)cc4c(=O)oc1c2c34 strictly below 900 µM?
1

Lab note: IC50 threshold 900 µM. Does this compound come in strictly under it? COC(=O)C1CC(=O)c2oc(=O)c3cc(O)c(O)c(O)c3c21 (centres undefined) [METHYLBREVIFOLIN CARBOXYLATE]
-1

API: query returns whether the compound falls strictly under 900 µM in IC50. Query: CCOC(=O)c1cc(O)c(O)c(O)c1 [ETHYLGALLATE]
-1

Regarding CCOC(=O)[C@H]1OC(=O)c2cc(O)c(O)c(O)c2[C@@H]1CC(=O)OC , kindly confirm whether its IC50 is beneath 900 µM.
-1

Determine whether this compound shows IC50 lower than 900 µM (ties excluded): O=C(O)/C=C/c1ccc(O)c(O)c1
1

Dear reviewer, please state whether O=c1oc2c(O)c(O)cc3c(=O)oc4c(O)c(O)cc1c4c23 has IC50 strictly beneath 900 µM.
1

---

Tested on: Erythrocyte
Assay: Anticomplement activity in sheep erythrocytes assessed as concentration required for 50% hemolytic inhibition by classic pathway pretreated for 10 mins with guinea pig serum followed by erythrocyte addition measured after 30 mins by spectrophotometeric method
Type: functional, cell-based
Conditions: Ovis aries
Would you kindly list pIC50 for each of these compounds?
Entry type: numeric. Quantity: pIC50, the -log10 of concentration in molar units.

Jot down pIC50 (Erythrocyte) of COc1cc(/C=C(/C(=O)NCCc2ccc(O)cc2)c2cc(OC)c(O)c(OC)c2)ccc1O .
2.87

System Erythrocyte. Read-out pIC50. Item O=C1C[C@@H](c2ccc(O)cc2)[C@]2(O)C(=O)O[C@@H]([C@H](O)CO)[C@H]2O1 . Report value.
3.14

Name the value of pIC50 reported for CCOC(=O)[C@H]1OC(=O)c2cc(O)c(O)c(O)c2[C@@H]1[C@H](CC(=O)O)C(=O)O when tested on Erythrocyte.
3.34

Output reported pIC50 of the compound COc1c(O)cc2c(=O)oc3c(O)c(O[C@@H]4O[C@@H](C)[C@H](O)[C@@H](O)[C@H]4O)cc4c(=O)oc1c2c34 on Erythrocyte.
3.74

Origin of measurements: ChEMBL document CHEMBL4118121
